Examples of compounds with documented melting point follow.

Take a look at these entries with their results.
COc1cc2ncc(C#N)c(Nc3ccc(C)c(Cl)c3)c2cc1OC: > 250 °C
CCOC(=O)c1nc(-c2ccccc2)[nH]c1N=NN(C)C: 171 °C
O=C1N[C@@H](C(=O)NO)C[C@H]1c1ccc(-c2ccc(F)cc2)cc1: 193 to 202 °C
COC(=O)c1ccc(Cc2cn(C)c3ccc(C(=O)OC)cc23)c(OC)c1: 137 to 140 °C
CCCOc1ccc(F)c2c(=O)c(-c3ccc(OC)cc3)cn(CCN3CCOCC3)c12: 206 to 208 °C

Item Cc1nn(-c2cccnc2)cc1NC1CC1 : provide melting point
104 to 107 °C

Report melting point for Clc1cc(CCc2ccccn2)c2oc(-c3cn[nH]c3)nc2c1
204 to 208 °C

Report melting point, nothing else, for this compound: CCCCCCC(=O)Oc1ccc(-c2ccc(C#N)cc2)cc1
57.7 to 57.9 °C

Please supply the value of reported melting point for the item O=C1NCC(CCN2CCN(c3ccccc3F)CC2)O1 (configuration not stated)
121 to 124 °C

Give melting point for the following compound: CCOC(=O)C1COc2cc(C)c(C)cc2O1 (configuration not stated)
70 to 71 °C

// fetch melting point given entry COc1c(CBr)nc2sc(Cl)cn2c1=O
160 to 162 °C

Give reported melting point value for CC(C)(CO)NC(=O)CBr
107 to 109 °C

Read the entry COc1ccc(N2CC(O)c3cc(Cl)sc3S2(=O)=O)cc1 (configuration not stated) and write its reported melting point.
127 to 132 °C

Please report melting point for the following compound: CCc1c(C(C)C)nc(C(C)C)c(C(C)O)c1-c1ccc(F)cc1O (configuration not stated)
190 to 191 °C

Please report melting point for the following compound: CONC(=O)Cc1cccc(C(=O)c2ccc(Cl)cc2)c1C
150 °C

Supply melting point value. Item: CC(C)c1ccc(NC(=O)Oc2ccc3c(c2)CCN3Cc2ccccc2)cc1
145 to 150 °C

Fill in melting point for record Cc1cc(C)nc(NC(=O)NS(=O)(=O)c2ccccc2C(=O)O)n1
160 °C

Specify reported melting point for the compound shown: COc1ccc(C(=O)CN2CCN(C(c3ccccc3)c3ccccc3)CC2)c(OC)c1OC
119 °C

Please give measured melting point of the following entry: COc1ccc(C=O)c(OCCO)c1
94 °C

Look up and state reported melting point for CCNc1ccc2c(c1)CNC2
69 to 71 °C

====

Observation type: melting point

# annotated cases, reported melting point shown
Cc1c(Cl)cccc1N=Cc1ccc(Cl)cc1: 79 to 81 °C
c1ccc(Nc2ccc(Cc3ccc(Nc4ccccc4)c4ccccc34)c3ccccc23)cc1: 154 to 157 °C
Cc1noc(NS(=O)(=O)c2ccccc2-c2ccc(-c3ncco3)cc2CC(=O)NC(C)(C)C)c1C: 117 to 123 °C
CC(C)COC(=O)Oc1ccc2c(c1)OCN(CCO[N+](=O)[O-])C2=O: 82 to 84 °C

Read the entry O=c1c2ccccc2c(Br)c(Br)c2ccc(Br)cc12 and write its reported melting point.
173 to 175 °C

Complete the entry with melting point for O=C(Cc1ccccc1Nc1c(Cl)cccc1Cl)OCc1ccccn1
80 to 81 °C

Give the reported value of melting point for this record: COc1ccc(C(C#N)=Cc2ccc(OC)c(OC3CCCC3)c2)cc1
102 to 105 °C

Find the measured melting point of COc1cccc(C23CCC(=O)C(C2)NC3=O)c1 (centres undefined) and report it.
138 to 139 °C

Using known records, supply melting point for O=C(N[C@H]1CC[C@H](CCN2CCN(c3nccc4c3OCC4)CC2)CC1)c1ccc(-c2cccnc2)cc1
235 °C
